# Tested on: CP268
# METHOD DESCRIPTION: qHTS profiling for inhibitors of Plasmodium falciparum proliferation (AID 504749); also: nearly all actives have a fitted effect of over 60% in size
# TEST PARAMETERS: P. falciparum in erythrocytes, SYBR Green DNA, 72 h; series mostly up to 28.7 µM
# Method: NIH National Institute of Allergy and Infectious Diseases [NIAID] NIH Chemical Genomics Center [NCGC] […] Because mature erythrocytes lack DNA, only Plasmodium-derived DNA is detected. NCGC Assay Protocol Summary: The SYBR Green viability assay was adapted from a method described previously (Plouffe et al., 2008). […] The following morning, fluorescence intensity at 485(14) nm excitation and 535(25) nm emission wavelengths was measured on an EnVision (Perkin Elmer) plate reader. […]
Results filed as inconclusive are left out. Calls of active or inactive are those of the source. Calls follow the shape of the dose curve; as a rule, active = well fitted inhibition curve with a large enough effect; inconclusive = small, poorly fitted or top-dose-only effect; inactive = flat fitted curve, though single readings scatter.
Form entry, call: pick from active, inactive

Could you please tell me the result logged for CC(=O)O[C@]1(C(C)=O)CCC2C3CCC4=CC(=O)CCC4(C)C3(F)C(O)CC21C (stereo not given in full) in this assay? inactive

Could you please tell me the result logged for CC1(C)SC2C(NC(=O)C(C(=O)O)c3ccccc3)C(=O)N2C1C(=O)O (stereo not given) in this assay? inactive

Could you please tell me the result logged for OCC1O[C@H](Oc2ccc(O)cc2)C(O)C(O)C1O (stereo not given in full) in this assay? inactive

Could you please tell me the result logged for CC(=O)OCC(=O)[C@@]1(O)CCC2C3C[C@H](C)C4=CC(=O)C=CC4(C)C3C(O)CC21C (stereo not given in full) in this assay? inactive
